From: the domain aggregation screens of Martell et al. (2025)

Experiment: soluble fraction after stress (log2 fold change); higher = more stays soluble; pooled small domains, quantitative proteomics;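 further: 20 min heating vs room temperature control held 20 min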
Conditions: stress: 75 degC
property_label: soluble fraction (log2)

Recorded results for 3 sequences are shown here.
# seq_string, property_label, obs_value
data = [
    ("HMPSSQQVMRRLATVGPDKTLEELQRQHDAHLRKYGEFNDFRGERQQMRQEMERIKEAKQGTGPYAHLMG", "soluble fraction (log2)", 0.025),
    ("HMLEEIDYPEEQLQLLFAWSRDHVQSTPPGLPVVDDHVWHILVRGYGATDQRTEAFALLASYAGFP", "soluble fraction (log2)", 0.135),
    ("HMNKEDIASNEKLLGLLNHMSKVLKDIDFIKDDRPMIVRKINHIFKKATLSEEEINILRGVLSAIENHS", "soluble fraction (log2)", -1.46),
]

Prompt line: Dear colleague, I am looking for the recorded soluble fraction (log2) of the following sequence: `HMARRLELEDIPVDEVLFTASRNLVDAIEVMDPSRQAPMIQPWLKQALEWAVGALGFSKEDAVATLTSD`
Response line: 0.157

====

// reported soluble fraction (log2) per item
Assay: soluble fraction after stress (log2 fold change); higher = more stays soluble; pooled small domains, quantitative proteomics
Settings: stress: 75 degC
Reply with the value as a number alone.

# seq_string, obs_value
measured = [
    ("HMTVTTDITQYFLQENGLLNGPNARQLRQKIGETLNIGYTNGKQLLKRAQQFGLTRDQILTALKK", -0.638),
    ("HMSLTYTGKFILNHNNIDQSSFNINIYLVNKQTIIQITKPFYGNVLNIKFNEENDLIISPKQFS", -0.369),
    ("HMPKNEHETKAIGNQTGGRVFLFLNTDNINRDYNMYISKQVKFVREISQEYYGKVAVFEDLYGNLWDLIE", 0.0316),
    ("HMRNMVSVLDHIEGIGPKRRQLLYEHYGELEKIKEASVEEMAGLDGMNRPAAEAVYNFFLAQRNL", -0.247),
    ("HMIITLNIENLKRARENAGLTQTQAAQKIGVSDGTYKNYEQGKREPNGDKIVTIANAFGVTTDYLLGR", -0.475),
    ("HMNLDYKQFQVFNNIETLNTFTNLLSDNKIDFEVENNSKIFDPSFANNDFEKEYIVKIHPNDFEKVY", 0.0557),
    ("HMDAYDEVTTLSQMVASGKNTTVAHLKHLKEYHQTDYLRQAVEWLLSNRKNVSFSVDEVMQEVHN", -0.0471),
    ("HMSKKTQKDEVVDLFLKTGNEPLHYKEISKKTGIIVHNVRRITGQNVVGKTDNPVFKRVSPGVYKLID", -0.72),
]

Prompt line: Dear colleague, I am looking for the recorded soluble fraction (log2) of the following sequence: `HMKNLKPSTEVILKELVKRYPDQTEFRKQQIVDVGQSFGYKGKDYGPIFDADNRVKIGTYDLAGLIVPLQR`
Response line: 0.0472

Prompt line: Would you kindly repeat that for `HMGPYGAGSAAPAEDGSGPEGWTVKGNAKSMLYHTEGSPYYGRTNADVWFRDEESAEAAGFRRWDRK` ?
Response line: -0.0366

Prompt line: Would you kindly repeat that for `HMRITEQRRTLAKLFADTPGYLSPKDVYDYMGRFYPGLSFDTVYRNLRLLDELGVLEQVVFEDGVKFK` ?
Response line: -0.847

Prompt line: Would you kindly repeat that for `HMNVPLYIMIESAVEQRLLDGTYQVGKMIPTEFELMDEFSVSRETVRKAINLLVQRGKLEKKRGIGTFVAS` ?
Response line: -3.28

Prompt line: Would you kindly repeat that for `HMLAVPADFAEKLQSLRSQLASDDLDASDAFGRLQPFIKALYPAQLEALRKAVDDFDFVEATRLIDQLPQ` ?
Response line: -0.376

Prompt line: Would you kindly repeat that for `HMSKETTYEVLSLKGDEWQTDTIYSDRDEAIEAARNLHGDPHIDGAKVISEVYDDKTGGSKETTIFNT` ?
Response line: 0.535

Prompt line: Would you kindly repeat that for `HMISKRFQIDEDNSNKRIDIFLTQSLDSISRGIVQQLILENKVEVNGGPVKRNYLIKIGDVIDVKIDL` ?
Response line: -2.96

Prompt line: Would you kindly repeat that for `HMSFGWESLENKEGVADTDLHPSGWVRIEDSRIFVVSEGDFINKGSKVTVLTVDGNRVVVRELI` ?
Response line: -2.1

Prompt line: Would you kindly repeat that for `HMDADRLSPREREMLQFIARGQSNKEIARALELAESTVKIHVQNMLRKLNLSSRVQAAVFAVENGLG` ?
Response line: -1.59

====

Assay: soluble fraction after stress (log2 fold change); higher = more stays soluble; pooled small domains, quantitative proteomics
Settings: stress: 75 degC
property_label: soluble fraction (log2)
Reply with the value as a number alone.

# seq_string, obs_value
measured = [
    ("HMTELSLSEQAYQQLRRMIVRLDFAPGDVLREEALQEALGMSRTPIREALQRLAREHFVTVIPRRGMFVS", -3.15),
    ("HMPQPDVIEVRQGIVTGMRPDRRTGWLRDEEDAAGEPKSFSIDVITPKGRTPGKGAVVTYTLTNGKITEVK", -0.047),
    ("HMSEPIYTQLKEILTQKIVNGEFPPGARLPSEYELTELYHISRSTVRLALKELEASGMIVRRRGKGTFVSS", -2.39),
    ("HMSSAVKRALAELPENWRMIVYYRVVEGLSYAEIAKVLDIPDGSVMSGLHRGKKMLRGLLLEYAQQEGYD", -1.79),
    ("HMKSVTVIFKESGNVVSSKKLSVVATAQYVDKSRITAPAGYRIATTDSKLKISENNTVTVEVK", -0.496),
]

Prompt line: Dear colleague, I am looking for the recorded soluble fraction (log2) of the following sequence: `HMLKAKKIPVSDLEKFKGIVAEDVVSKAKALILPRGSNLSWLSNVAKKNLIAKLKAEGIEYISVYSS`
Response line: -0.47

Prompt line: Would you kindly repeat that for `HMGLQLTPVRRRVLEILLHEHRALGAYDILDKLRSEGLGSQPPVAYRALDFLVTHGFAHKIERLNAF` ?
Response line: -0.829

Prompt line: Would you kindly repeat that for `HMQTKMVYSDLVNSIKSEQVSSMLVSGNTVTVTLTNGDKAKVKIPSLDTLQADVGKEMNDQMDKGTLKQE` ?
Response line: 0.18

====

// reported soluble fraction (log2) per item
Test: soluble fraction after stress (log2 fold change); higher = more stays soluble; pooled small domains, quantitative proteomics
Details: stress: 75 degC

Recorded results for 5 sequences are shown here.
# seq_string, obs_value
rows = [
    ("HMDQINNDLRKLIEFLPEDQKTVLKMRHFQEMSFKEIAKATGVSINTALGRMRYALINLRKLIEENEI", -2.06),
    ("HMRTMFGQRLRLARKRAGLSMQALADRVTPSVSAQAISKYEADQMMPSSSVLVGLGKALGVSLDFLVGGQ", -1.41),
    ("HMSEDAVKFRAAVEVENGLAQRNLNKNQAALILGVDRSYFTYIISGKKTPSPDMAKRIGLLLGFDWRVFYA", -1.89),
    ("HMDKAGWLPARVRLADYPALKQLAWQVQGVDELTPREALGIYERNWRHLDEAALLPRERNLIDALRLAFG", -0.72),
    ("HMIETIIGAEGKVLETIDNFNQKGVVALAGKEWTARSADASIIPEGAKVSVVEISGVKLIVTQN", 0.251),
]

Prompt line: Dear colleague, I am looking for the recorded soluble fraction (log2) of the following sequence: `HMELGYTPNNLRSVRAKYGLTQKQVAEITGLKTWHPVNRWEAPVEAAYHADMPHTKWLKLLDELSSR`
Response line: -1.45

Prompt line: Would you kindly repeat that for `HMKTPRKVFTVLIRNTEYDVYDIDGKEHQGYNDTPKTWWLYHSERLPEGMIPPIDSDSWKPYSVGT` ?
Response line: -1.27

Prompt line: Would you kindly repeat that for `HMKIAPRTAENQQLRKMILEIYTTSKKRVGPAKVRRMLLRDYGISISIGRVYRLMSTMNLPKMS` ?
Response line: 0.0421

====

Assay: soluble fraction after stress (log2 fold change); higher = more stays soluble; pooled small domains, quantitative proteomics
Details: stress: 75 degC
property_label: soluble fraction (log2)
Reply with the value as a number alone.

Recorded results for 5 sequences are shown here.
# seq_string, soluble fraction (log2)
records = [
    ("HMPKSKTPDDAAEEFRTAFSALDMDGKVTVKDMAEYMGVIDKTVYARLKKMGDEFTLDKGVITKKT", -0.104),
    ("HMIIVMRKGATEAQVNDIVERVRAAGFGVHLSQGEERTIIGAIGGDRAVLADLNLEAAPGVERVTPIS", -0.176),
    ("HMTFGENLIRLRRQQGLSQEQLGMRIGVSRQTVSKWELNDTTPEMEKLIALADLFGLSLDELTGRV", -0.974),
    ("HMEKTEQMQVILDYIARYGEINNEKVQEILGVKRTRAYTILKQMVENGFVTTNGRGEEKKYYSIR", -1.25),
    ("HMHNSPSPVATTILRFLQPVRAFVGDTEDMRTFGPFLREDVAMVPASQAKNLIRSGHAVEINP", -0.0107),
]

Prompt line: Dear colleague, I am looking for the recorded soluble fraction (log2) of the following sequence: `HMLSVKEQTYQIIKEKILNQEYPAGARININELAEELGISNSPIREALSLLEQQGLVISNRSSGATVT`
Response line: -0.176

Prompt line: Would you kindly repeat that for `HMEERDMKGSISDLVERYADQLTDEQLEEIVLGIKNGLLEEDVKSYFFLPAEDMRRIRTALEQVR` ?
Response line: 0.0219

Prompt line: Would you kindly repeat that for `HMSLIHEQSLKEIRIFINNLPESLRTAFTLREQDGLSYEEISKITDTPIGTVRSRIFRARESILEHINEEL` ?
Response line: -2.25

Prompt line: Would you kindly repeat that for `HMGEGTAVGKALKFLAAQGKKFAPELLDMAGSLTGVEALSKLGDAIKGDPELSELDKRILLAELETDAV` ?
Response line: -0.171

Prompt line: Would you kindly repeat that for `HMNQDQDLSRIKGIGPEMVDRLHAQGVETLEQIAAMQMEQLKKLDQQISGNGKAVREQWAEQAKQLLTT` ?
Response line: 0.099

Prompt line: Would you kindly repeat that for `HMLQKVELSDNEKFIFDSLQKEQKMALLRLKELVNLSNKAWDVSVKNLTKQGLVKVTKIDEELLIEI` ?
Response line: -0.845

Prompt line: Would you kindly repeat that for `HMASDEVPGAGFKWREDVLLRVMEANGIDKSNRDDFVRHAVNFDDDDNNYLKKAEIEAAAAAWVESQSPA` ?
Response line: -0.696

Prompt line: Would you kindly repeat that for `HMVGEPEPIRYSRFLDEMKSGKLDSVVIQGDTILGVRKDKSQFKTVNPETDYSALIGALDKAGVGIEGRA` ?
Response line: 0.132

Prompt line: Would you kindly repeat that for `HMDINIETLNYYVGKAKIPLSELRISVKNIDLFLSGEKQPTFNQLSSIAKKLNIPTGLLLLDESIEV` ?
Response line: -3

Prompt line: Would you kindly repeat that for `HMVYVPTKAEVSQQFQDASKARFDERYAIVELADGRRTMAPLAFLTKADHAWLKQLASTSPLPKGK` ?
Response line: -0.16

Prompt line: Would you kindly repeat that for `HMKKEQVIVPNVVGDTYDVALRKLTDAKLKVGETFPADREGHQGVIEKQSPAAGETVDEDTPVALFFKV` ?
Response line: 0.0903

Prompt line: Would you kindly repeat that for `HMFQNPSQVVTTRVGELRAAIPTAQQGRITMGVAVVEDANSVRSVLISTSEPRGYLRPGVTLGPGETMV` ?
Response line: 0.0661
